src = PubChem BioAssay (NCI)

- Tested on: T-47D breast
- Measurement Description: NCI tumour cell line growth inhibition, 48 h
Each entry below carries its reported TGI.

# count of solved cases: 9
Molecule	Endpoint Value
O=C(NCCN1CCOCC1)c1cc2c(Oc3ccc(NC(=O)C4(C(=O)Nc5ccc(F)cc5)CC4)cc3)ccnc2[nH]1	46 µM
O=C(c1ccccc1)c1nn(-c2cccc(Cl)c2)c2nc3nc(-c4ccccc4)cc(=O)n3nc12	> 25 µM
COC(=O)C(=O)C(C(=O)C(=O)Nc1cc(C)ccc1C)c1nc2ccccc2[nH]c1=O (stereo not given)	> 100 µM
Cc1cc2nc3c(N)nn(CCCN(C)C)c3nc2cc1C	> 100 µM
CC(NC(CC12CC3CC(CC(C3)C1)C2)C(N)=O)c1ccccc1 (stereo not given)	> 100 µM
Cc1ccc(C)c(N2CCN(c3ccncc3N)CC2)c1	30.3 µM
CC(=O)N(C(=O)CC(=O)N1N=C(C)C(N=Nc2cccc([N+](=O)[O-])c2)C1=O)c1ccc(Cl)cc1 (stereo not given)	> 10 µM
COc1ccc2cc(CNCCCCCCNC(=O)Nc3cccc4ccccc34)ccc2c1	> 100 µM
CCOC(=O)/C(C(=O)c1ccc[nH]1)=C1/CCCN1C	> 100 µM

Test system T-47D breast; read-out TGI; what value for COc1cc2c(c(O)c1OC)C(O)C1CCC(=O)N1C2c1ccc2c(c1)OCO2 (stereo not given) ?
> 100 µM

----------
- Test system: NCI/ADR-RES ovarian
- Measurement Description: NCI tumour cell line growth inhibition, 48 h; in the data active = GI50 below about 0.43 µM; inactive = the rest
Choose one outcome from this list and give only that: active, inactive

Consider the following illustrative entries.
Molecule Smiles	Assayed Target	Label Value
COc1ccc(/C=C\c2cc(OC)c(OC)c(OC)c2)cc1NC(=O)/C=C/c1cc(OC)c(OC)c(OC)c1	NCI/ADR-RES ovarian	inactive
c1c2c(cc3c1OCO3)-c1ncc3cc4c(cc3c1C2)OCO4	NCI/ADR-RES ovarian	active
C=C(CN1CCN(c2cc(C(F)(F)F)cc(C(F)(F)F)c2)CC1)c1ccc(C(=O)Nc2ccccc2N)cc1	NCI/ADR-RES ovarian	inactive

In this assay, the call recorded for N#Cc1ccc2c(-c3ccnc(NC4CC4)n3)c(-c3ccc(F)cc3)nn2c1 was what?
inactive

# outcome recorded in this test, key = ClC/C=C/CSc1ncnc2nc[nH]c12
inactive

----------
- System: SW-620 colon
- Measurement Description: NCI tumour cell line growth inhibition, 48 h; in the data active means GI50 below about 0.43 µM; inactive means the rest
Thanks in advance; please answer with one of these: 1 (yes) for active, 0 (no) for inactive

Some solved entries appear below for comparison.
Compound	Label Value
NS(=O)(=O)c1cccc(Nc2cc(-c3ccc(F)cc3)[nH]n2)c1	0 (no)
c1c2c(cc3c1OCO3)-c1ncc3cc4c(cc3c1C2)OCO4	1 (yes)
O=C(O)CCCCCNCc1cc2cc3c(cc2c2cc(OCc4ccccc4)ccc12)OCO3	0 (no)
O=C1c2ccccc2-c2cn(Cc3ccccc3)c3cccc(c23)C1c1cccnc1 (stereo not drawn)	0 (no)
CN1CCN(Cc2ccc(NC(=O)c3cncc(C#Cc4c(N)ncc5ccccc45)c3)cc2C(F)(F)F)CC1	1 (yes)

// param item: ClC/C=C/CSc1ncnc2nc[nH]c12 ; yields the recorded call
0 (no)

Given O=C(O)CN(CCN(CC(=O)O)CC(=O)O)CC(=O)O.[Cu+2].[Na+] , state the outcome it received in this test.
0 (no)

----------
# GI50 listing for each entry below
- Test system: EKVX NSCLC
- Measurement Description: NCI tumour cell line growth inhibition, 48 h

Compound	GI50
CC1CCc2c(C(=O)Nc3ncc(Cc4cccc([N+](=O)[O-])c4)s3)csc2C1 (stereo not given)	1110 nM
CC(C)(C)n1cc(-c2ccnc(NCCCNS(=O)(=O)c3cccc4ccccc34)c2)c(-c2cccc(O)c2)n1	2130 nM
CN1CCN(Cc2ccc(NC(=O)c3cncc(C#Cc4c(N)ncc5ccccc45)c3)cc2C(F)(F)F)CC1	572 nM
Cc1ccc(C)c(N2CCN(c3ccncc3N)CC2)c1	10800 nM

Here's the next entry for you.
GI50 lookup needed for COc1cc2c(cc1O)CCN[C@@]21CS[C@H]2c3c(OC(C)=O)c(C)c4c(c3C(COC1=O)N1C2C2NC(Cc3cc(C)c(OC)c(O)c32)[C@@H]1O)OCO4 (stereo not given in full) , thanks.
0.000588 ng/mL

----------
- Tested on: NCI-H522 lung
- Measurement Description: NCI tumour cell line growth inhibition, 48 h
Parameter threshold = 3 µM. Response is class 1 when TGI meets or exceeds it, else class 0.

Please review the following examples before continuing.
Compound	Assayed Target	Label Value
CCOC(=O)c1c(CN2CCCCC2)nc2ccc(Cl)cc2c1-c1ccccc1	NCI-H522 lung	class 1
O=C(O)CCCCCNCc1cc2cc3c(cc2c2cc(OCc4ccccc4)ccc12)OCO3	NCI-H522 lung	class 1
COc1ccc2cc(CNCCCCCCNC(=O)Nc3cccc4ccccc34)ccc2c1	NCI-H522 lung	class 1
CC(=O)N(C(=O)CC(=O)N1N=C(C)C(N=Nc2cccc([N+](=O)[O-])c2)C1=O)c1ccc(Cl)cc1 (stereo not given)	NCI-H522 lung	class 1
COC(=O)c1sc(-n2cnc3cc(OC)c(OC)cc32)cc1OCc1ccccc1C(F)(F)F	NCI-H522 lung	class 1
OC[C@H]1C[C@](O)(c2ccccc2Cl)[C@@H](c2ccccc2Cl)O1	NCI-H522 lung	class 1
O=C(CC1(O)C(=O)Nc2ccc(Cl)cc21)c1ccc(C(=O)NCC2CCC3(CC2)OOC2(CCCCC2)OO3)cc1 (stereo not given)	NCI-H522 lung	class 0
COc1cccc(NC(=O)/C(CS(=O)(=O)CCC(C(C)=O)C(C)=O)=N\NC(C)(C)C)c1	NCI-H522 lung	class 1

Next up:
Decide: TGI of Cc1[nH]c2c(C)c3c([nH]c4ccc(Cl)cc43)c(C)c2c(=O)c1C >= 3 µM?
class 1

----------
# TGI per entry
- System: RPMI-8226 leukemia
- Measurement Description: NCI tumour cell line growth inhibition, 48 h

Compound	Assayed Target	Endpoint Value
O=C1c2ccccc2CC12Cc1ccc3c(c1C2=O)CCCC3 (configuration not stated)	RPMI-8226 leukemia	> 100 µM
CC1=C(C(=S)Nc2ccc(Cl)c(C(=O)OC(C)C)c2)SCCO1	RPMI-8226 leukemia	63.9 µM
C=CCSC1=N/C(=C\c2ccc(C)cc2)C(=O)N1CC=C	RPMI-8226 leukemia	31.9 µM

State the recorded TGI for this entry: CCCNC(=O)c1cc(OC)c(OC)cc1NC(=O)C12CC3CC(CC(C3)C1)C2
92.7 µM

Consider the compound shown here: N#CC1=C(N)OC2=C(CCCc3ccc([N+](=O)[O-])cc32)C1c1ccc(Cl)cc1 (configuration not stated) What is its recorded TGI?
32 µM

Find the recorded TGI belonging to C#C[C@]1(O)CC[C@H]2[C@@H]3CCC4=C/C(=N/OC(=O)c5cccc6cc7ccccc7nc56)CC[C@@H]4[C@H]3CC[C@@]21CC and report it.
> 100 µM

Report TGI for Cc1ccccc1NC(=O)C(=O)C(C(=O)c1ccccc1F)C1OC(=O)c2ccccc21 (configuration not stated) please.
48.3 µM

----------
- Tested on: KM12 colon
- Measurement Description: NCI tumour cell line growth inhibition, 48 h
Observable: TGI

I would be grateful if you could share the reported TGI for Nc1nc(N)c(CCCCc2ccc([N+](=O)[O-])cc2)c(N)n1 .
> 100 µM

// lookup TGI for COc1oc(C2C/C(=C/C(C)=C/C(C)=C/C(C)=C/c3ccc([N+](=O)[O-])cc3)CO2)c(C)c(=O)c1C (stereo not given)
> 48.2 µM

Would you mind telling me what TGI value was observed for C(=C\c1ccc2ccccc2c1Nc1ccccc1)/c1ccccc1 ?
> 100 µM

What does the data say about its TGI? Entry: Cc1c2ccncc2c(C)c2c1[nH]c1ccc(O)cc12
0.271 µg/mL

Param item = COc1cc([C@H]2OC[C@@H]3C(c4cc(OC)c5c(c4)OCO5)OC[C@H]23)cc(OC)c1OC (stereo not given in full) ; retrieve measured TGI.
> 100 µM

Given the molecule CCOC(=O)Nc1cc2c(c(N)n1)N=C(c1ccc(Cl)cc1Cl)CN2 , what is its reported TGI?
2.83 µM

Entry OC[C@H]1C[C@](O)(c2ccccc2Cl)[C@@H](c2ccccc2Cl)O1 has what TGI?
64.8 µM

Reported TGI for CC/C(CC(=O)CCC(=O)Nc1ccc(C)c(C)c1)=N\NC(=O)c1cc2ccccc2cc1O : what is it?
> 100 µM

Would you mind telling me what TGI value was observed for COc1cc(C(=O)/C=C/c2c[nH]c3ccccc23)cc(OC)c1OC ?
11.2 µM

Given the molecule CCOC(=O)CN(CC)C(=O)NC12CC3CC(CC(C3)C1)C2 , what is its reported TGI?
> 750 µM

----------
- Tested on: DU-145 prostate
- Measurement Description: NCI tumour cell line growth inhibition, 48 h
Observable: TGI (µM)
Answer in µM, number only, no unit symbol.

Previously resolved entries follow.
Compound	Observable	Unit Of Measurement	Endpoint Value
N#CC1=C(N)OC2=C(CCCc3ccc([N+](=O)[O-])cc32)C1c1ccc(Cl)cc1 (centres undefined)	TGI	µM	63.2
COc1cc2c(cc1C)NC(=O)/C2=C/c1c(Cl)[nH]c2ccccc12	TGI	µM	27
O=C1c2ccccc2-c2cn(Cc3ccccc3)c3cccc(c23)C1c1cccnc1 (centres undefined)	TGI	µM	40.5

Now for the compound whose TGI we want.
What measured TGI goes with OC[C@H]1C[C@](O)(c2ccccc2Cl)[C@@H](c2ccccc2Cl)O1 ?
74.3
